Provide the recorded Ki for the entries that follow.
target: SERT (Rattus norvegicus); construct: from tissue; host or cells: rat brain; experiment: SERT uptake inhibition, [3H]-5-HT, rat brain; format: biochemical; details: number in parentheses within cell
Sequence (P31652 whole entry): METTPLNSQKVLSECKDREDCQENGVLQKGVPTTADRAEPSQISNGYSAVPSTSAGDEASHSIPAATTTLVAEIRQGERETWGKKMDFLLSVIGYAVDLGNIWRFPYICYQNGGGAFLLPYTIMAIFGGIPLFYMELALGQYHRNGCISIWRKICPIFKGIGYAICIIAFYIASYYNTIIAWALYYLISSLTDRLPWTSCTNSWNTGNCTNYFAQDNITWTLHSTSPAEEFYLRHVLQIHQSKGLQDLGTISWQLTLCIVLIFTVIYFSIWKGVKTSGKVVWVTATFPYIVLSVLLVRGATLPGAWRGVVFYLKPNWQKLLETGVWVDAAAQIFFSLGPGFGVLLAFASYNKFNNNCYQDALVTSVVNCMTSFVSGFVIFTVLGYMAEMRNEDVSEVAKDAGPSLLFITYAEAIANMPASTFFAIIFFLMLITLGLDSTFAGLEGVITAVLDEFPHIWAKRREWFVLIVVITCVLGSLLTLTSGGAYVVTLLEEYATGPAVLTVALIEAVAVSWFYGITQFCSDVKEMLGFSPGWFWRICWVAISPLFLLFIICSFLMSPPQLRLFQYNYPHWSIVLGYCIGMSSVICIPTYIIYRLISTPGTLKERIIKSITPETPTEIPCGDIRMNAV
Give the value in nM but do not write nM after it.

Recorded Ki for c1ccc(C(c2ccccc2)[C@@H]2CC[C@H](NCc3ccc4occc4c3)CO2)cc1 , please? 0.71

Recorded Ki for O[C@@H]1C[C@@H](C(c2ccc(F)cc2)c2ccc(F)cc2)OC[C@H]1NCc1ccc2c(c1)CCO2 , please? 54

Recorded Ki for O[C@@H]1C[C@@H](C(c2ccccc2)c2ccccc2)OC[C@H]1NCc1ccc2occc2c1 , please? 2.68

Recorded Ki for COc1ccc(CN[C@@H]2CO[C@H](C(c3ccc(F)cc3)c3ccc(F)cc3)C[C@H]2O)cc1 , please? 46.7

Recorded Ki for Oc1ccc(CN[C@@H]2CO[C@H](C(c3ccc(F)cc3)c3ccc(F)cc3)C[C@H]2O)cc1F , please? 334

Recorded Ki for COc1cc(O)cc(CN[C@@H]2CO[C@H](C(c3ccccc3)c3ccccc3)C[C@H]2O)c1 , please? 385

Recorded Ki for COc1ccc(CN[C@@H]2CO[C@H](C(c3ccc(F)cc3)c3ccc(F)cc3)C[C@H]2O)cc1O , please? 367

Recorded Ki for COc1ccc(CN[C@@H]2CO[C@H](C(c3ccc(F)cc3)c3ccc(F)cc3)C[C@H]2O)cn1 , please? 258

The reported measurements were obtained from patent US9458124B2.
